tested on: 616215-338-R-J1-PDC spheroids with HUVEC/MSC, viability; test: Anticancer human tumor 616215-338-R-J1-PDC patient-derived colon adenocarcinoma cell line growth inhibition [PI3K]; conditions: second compound 3.16 µM; first compound 0.00316 µM; hits give low values
PROPERTY: viability, T/C

COMPOUND | TARGET_SYSTEM | PROPERTY | RECORDED_RESULT
CCN1CCN(Cc2ccc(Nc3ncc(F)c(-c4cc(F)c5nc(C)n(C(C)C)c5c4)n3)nc2)CC1 + Cc1nc(NC(=O)N2CCCC2C(N)=O)sc1-c1ccnc(C(C)(C)C(F)(F)F)c1 | 616215-338-R-J1-PDC spheroids with HUVEC/MSC, viability | viability, T/C | 96.7%
CC(C)n1nc(-c2ccc3oc(N)nc3c2)c2c(N)ncnc21 + CC(Nc1ncnc2nc[nH]c12)c1cc2cccc(Cl)c2c(=O)n1-c1ccccc1 | 616215-338-R-J1-PDC spheroids with HUVEC/MSC, viability | viability, T/C | 111%

Ask: Find the recorded viability, T/C belonging to Cn1ncnc1[C@H]1c2n[nH]c(=O)c3cc(F)cc(c23)N[C@@H]1c1ccc(F)cc1 + Cc1nc(NC(=O)N2CCCC2C(N)=O)sc1-c1ccnc(C(C)(C)C(F)(F)F)c1 and report it.
Result: 98.5%

Ask: Further, for CC(C)n1nc(-c2ccc3oc(N)nc3c2)c2c(N)ncnc21 + Cc1nc(NC(=O)N2CCCC2C(N)=O)sc1-c1ccnc(C(C)(C)C(F)(F)F)c1 ?
Result: 91%

###

tested on: 616215-338-R-J1-PDC spheroids with HUVEC/MSC, viability; experiment: Anticancer human tumor 616215-338-R-J1-PDC cell line growth inhibition [PI3K]; conditions: second compound 1 µM; first compound 3.16 µM; hits give low values;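 further: spheroids exposed to agents for seven days before the viability read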
Mark true (1) only for viability, T/C values smaller than 70%; exact matches and larger values are false (0).

Use these answered entries as a reference point.
COMPOUND | TARGET_SYSTEM | ASSIGNED_CATEGORY
C[C@@H](NC(=O)c1ncnc(N)c1Cl)c1ncc(C(=O)Nc2cc(C(F)(F)F)c(Cl)cn2)s1 + Cc1nc(NC(=O)N2CCCC2C(N)=O)sc1-c1ccnc(C(C)(C)C(F)(F)F)c1 | 616215-338-R-J1-PDC spheroids with HUVEC/MSC, viability | false (0)
CC1(C)CCC(CN2CCN(c3ccc(C(=O)NS(=O)(=O)c4ccc(NCC5CCOCC5)c([N+](=O)[O-])c4)c(Oc4cnc5[nH]ccc5c4)c3)CC2)=C(c2ccc(Cl)cc2)C1 + Cc1nc(NC(=O)N2CCCC2C(N)=O)sc1-c1ccnc(C(C)(C)C(F)(F)F)c1 | 616215-338-R-J1-PDC spheroids with HUVEC/MSC, viability | false (0)

Ask: Quick check: viability, T/C of CC(C)NCC(C(=O)N1CCN(c2ncnc3c2C(C)CC3O)CC1)c1ccc(Cl)cc1 (configuration not stated) + Cc1nc(NC(=O)N2CCCC2C(N)=O)sc1-c1ccnc(C(C)(C)C(F)(F)F)c1 under 70%?
Result: false (0)

Ask: Further, for Cn1ncc(Cl)c1-c1cc(C(=O)NC(CN)Cc2cccc(F)c2)sc1Cl (configuration not stated) + CC(Nc1ccc2c(c1)OCCn1cc(N3C(=O)OCC3C(F)F)nc1-2)C(N)=O ?
Result: false (0)

Ask: Further, for Cn1nccc1Nc1nccc(-c2ccn(C(CO)c3ccc(Cl)c(F)c3)c(=O)c2)n1 (configuration not stated) + COc1c(OCCCN2CCOCC2)ccc2c3n(c(=NC(=O)c4cnc(N)nc4)nc12)CCN3 ?
Result: true (1)

Ask: Further, for CC1(C)CCC(CN2CCN(c3ccc(C(=O)NS(=O)(=O)c4ccc(NCC5CCOCC5)c([N+](=O)[O-])c4)c(Oc4cnc5[nH]ccc5c4)c3)CC2)=C(c2ccc(Cl)cc2)C1 + COc1c(OCCCN2CCOCC2)ccc2c3n(c(=NC(=O)c4cnc(N)nc4)nc12)CCN3 ?
Result: true (1)

Ask: Further, for C=CC(=O)N1CCN(c2nc(=O)n(-c3c(C)ccnc3C(C)C)c3nc(-c4c(O)cccc4F)c(F)cc23)C(C)C1 (configuration not stated) + COc1c(OCCCN2CCOCC2)ccc2c3n(c(=NC(=O)c4cnc(N)nc4)nc12)CCN3 ?
Result: true (1)

###

tested on: 616215-338-R-J1-PDC spheroids with HUVEC/MSC, viability; assay: Anticancer human tumor 616215-338-R-J1-PDC cell line growth inhibition [PI3K]; conditions: second compound 0.316 µM; first compound 1 µM; hits give low values;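 further: spheroids exposed to agents for seven days before the viability read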
# Lookup of reported viability, T/C keyed by entry
Just the number please, in %, no unit attached.

Before answering, review these 2 worked examples.
MOLECULE | viability, T/C [%]
CC(C)NCC(C(=O)N1CCN(c2ncnc3c2C(C)CC3O)CC1)c1ccc(Cl)cc1 (configuration not stated) + COc1c(OCCCN2CCOCC2)ccc2c3n(c(=NC(=O)c4cnc(N)nc4)nc12)CCN3 | 30.3
CC1(C)CCC(Nc2ncc(C(F)(F)F)c(-c3c[nH]c4c(P(C)(C)=O)c(C#N)ccc34)n2)CN1 (configuration not stated) + Cc1nc(NC(=O)N2CCCC2C(N)=O)sc1-c1ccnc(C(C)(C)C(F)(F)F)c1 | 52.8

Switching to the query record.
Ask: Find the recorded viability, T/C belonging to CC(C)NCC(C(=O)N1CCN(c2ncnc3c2C(C)CC3O)CC1)c1ccc(Cl)cc1 (configuration not stated) + CC(Nc1ccc2c(c1)OCCn1cc(N3C(=O)OCC3C(F)F)nc1-2)C(N)=O and report it.
Result: 103

###

system: 616215-338-R-J1-PDC spheroids with HUVEC/MSC, viability; experiment: Anticancer human tumor 616215-338-R-J1-PDC cell line growth inhibition [PI3K]; conditions: second compound 0.0316 µM; first compound 3.16 µM; hits give low values;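 further: spheroids exposed to agents for seven days before the viability read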
PROPERTY: viability, T/C (%)
Just the number please, in %, no unit attached.

Before answering, review these 5 worked examples.
COMPOUND | TARGET_SYSTEM | PROPERTY | RECORDED_RESULT
Cn1nccc1Nc1nccc(-c2ccn(C(CO)c3ccc(Cl)c(F)c3)c(=O)c2)n1 (stereo not given) + CC(Nc1ncnc2nc[nH]c12)c1cc2cccc(Cl)c2c(=O)n1-c1ccccc1 | 616215-338-R-J1-PDC spheroids with HUVEC/MSC, viability | viability, T/C | 57
CCCS(=O)(=O)Nc1ccc(F)c(C(=O)c2c[nH]c3ncc(-c4ccc(Cl)cc4)cc23)c1F + Cc1nc(NC(=O)N2CCCC2C(N)=O)sc1-c1ccnc(C(C)(C)C(F)(F)F)c1 | 616215-338-R-J1-PDC spheroids with HUVEC/MSC, viability | viability, T/C | 66.6
Cn1nccc1Nc1nccc(-c2ccn(C(CO)c3ccc(Cl)c(F)c3)c(=O)c2)n1 (stereo not given) + COc1c(OCCCN2CCOCC2)ccc2c3n(c(=NC(=O)c4cnc(N)nc4)nc12)CCN3 | 616215-338-R-J1-PDC spheroids with HUVEC/MSC, viability | viability, T/C | 25.6
Cn1ncc(Cl)c1-c1cc(C(=O)NC(CN)Cc2cccc(F)c2)sc1Cl (stereo not given) + CC(Nc1ccc2c(c1)OCCn1cc(N3C(=O)OCC3C(F)F)nc1-2)C(N)=O | 616215-338-R-J1-PDC spheroids with HUVEC/MSC, viability | viability, T/C | 73.7
CC1(C)CCC(Nc2ncc(C(F)(F)F)c(-c3c[nH]c4c(P(C)(C)=O)c(C#N)ccc34)n2)CN1 (stereo not given) + CC(Nc1ncnc2nc[nH]c12)c1cc2cccc(Cl)c2c(=O)n1-c1ccccc1 | 616215-338-R-J1-PDC spheroids with HUVEC/MSC, viability | viability, T/C | 51.8

Ask: Find the recorded viability, T/C belonging to C=CC(=O)N1CCN(c2nc(=O)n(-c3c(C)ccnc3C(C)C)c3nc(-c4c(O)cccc4F)c(F)cc23)C(C)C1 (stereo not given) + Cc1nc(NC(=O)N2CCCC2C(N)=O)sc1-c1ccnc(C(C)(C)C(F)(F)F)c1 and report it.
Result: 113

Ask: Further, for C[C@@H](NC(=O)c1ncnc(N)c1Cl)c1ncc(C(=O)Nc2cc(C(F)(F)F)c(Cl)cn2)s1 + CC(Nc1ncnc2nc[nH]c12)c1cc2cccc(Cl)c2c(=O)n1-c1ccccc1 ?
Result: 114

###

# Lookup of reported viability, T/C keyed by entry
tested on: 616215-338-R-J1-PDC spheroids with HUVEC/MSC, viability; assay: Anticancer human tumor 616215-338-R-J1-PDC cell line growth inhibition [PI3K]; conditions: second compound 1 µM; first compound 0.1 µM; hits give low values;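 further: spheroids exposed to agents for seven days before the viability read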
Just the number please, in %, no unit attached.

COMPOUND | PROPERTY | RECORDED_RESULT
Cn1ncc(Cl)c1-c1cc(C(=O)NC(CN)Cc2cccc(F)c2)sc1Cl (stereo not drawn) + CC(Nc1ncnc2nc[nH]c12)c1cc2cccc(Cl)c2c(=O)n1-c1ccccc1 | viability, T/C | 88.5
CC(=O)c1c(C)c2cnc(Nc3ccc(N4CCNCC4)cn3)nc2n(C2CCCC2)c1=O + Cc1nc(NC(=O)N2CCCC2C(N)=O)sc1-c1ccnc(C(C)(C)C(F)(F)F)c1 | viability, T/C | 91.7

Switching to the query record.
Ask: Find the recorded viability, T/C belonging to CC(C)NCC(C(=O)N1CCN(c2ncnc3c2C(C)CC3O)CC1)c1ccc(Cl)cc1 (stereo not drawn) + CC(Nc1ncnc2nc[nH]c12)c1cc2cccc(Cl)c2c(=O)n1-c1ccccc1 and report it.
Result: 90.8

Reference for the values: PubChem BioAssay AID1963978
